test system: MOLT-4; test: NCI tumour cell line growth inhibition, 48 h
Activity calls are given as the source filed them. Rule as the data show it: active = GI50 up to about 1.1 µM and inactive = higher.
Please respond with reported GI50 for every item in the list.

Req: Suppose we examine the molecule "O=C(O)CC[P+](c1ccccc1)(c1ccccc1)c1ccccc1" ; what GI50 value has been reported?
Resp: 49.1 µM (inactive)

Req: Can you handle "CN(C)Cc1cc(C(C)(C)C)cc(CNC2CCCCC2)c1O" next?
Resp: 12.3 µM (inactive)

Req: Can you handle "Cc1[nH]c2ccccc2c1-c1cc(-c2cc(-c3c(C)[nH]c4ccccc34)on2)no1" next?
Resp: > 100 µM (inactive)

Req: Can you handle COC(=O)C1(C)NCCc2c1[nH]c1ccccc21 (stereo not given) next?
Resp: > 100 µM (inactive)

Req: Can you handle "CC(=O)Nc1cccc(/N=N/N(C)C)c1" next?
Resp: > 100 µM (inactive)

Req: Can you handle "Cc1c(C(=O)C/C(=N/NC(=O)CC#N)C(N)=O)[n+]([O-])c2ccccc2[n+]1[O-]" next?
Resp: 35.6 µM (inactive)

Req: Can you handle CC1OC2=N[C@@H]1C(=O)N[C@@H](C(C)C)C1=N[C@H](C(=O)N[C@@H](C(C)C)C3=N[C@H](C(=O)N[C@@H](C(C)C)C4=N[C@H](C(=O)N[C@H]2C(C)C)C(C)O4)C(C)O3)C(C)O1 (stereo not given in full) next?
Resp: > 10 µM (inactive)

Req: Can you handle COc1nc2ccc(COc3ccc(C(=O)NC(CCC(=O)O)C(=O)O)cc3)cc2nc1OC (stereo not given) next?
Resp: > 10 µM (inactive)

Req: Can you handle "Cc1ccc(NC(=O)c2cc(S(=O)(=O)N3CCNNC3=O)c(S)cc2Cl)cc1" next?
Resp: > 100 µM (inactive)

Req: Can you handle "Cc1nc(O)nc(N/N=C/c2ccc(Cl)c(Cl)c2)c1C(=O)Nc1ccc(Cl)c(Cl)c1" next?
Resp: 38.5 µM (inactive)
